EC50 for assorted molecules
Test system: HCV replicon
Experiment: HCV replicon replication assay (NPT level by captured ELISA)
Assay type: cell-based
Conditions: Hepatitis C virus, 72 h; Huh-7 HCV replicon-containing cells, three days incubation; read-out: Activity (inhibition of HCV replicon replication)

{"columns": ["Molecule", "EC50"],
 "data": [
  ["CCCCCCCCOc1ccc(Nc2nc(-c3cnc4[nH]c(=O)[nH]c4c3)cs2)cc1C(F)(F)F [Cmp 187]", "< 1000 nM"],
  ["CCCCCCCCOc1cc(Nc2nc(-c3cnc(OC)nc3)c(F)s2)ccc1C(F)(F)F [Cmp 88]", "< 1000 nM"],
  ["CCCCCCCCOc1cc(Nc2nc(-c3ccc(F)cc3)cs2)ccc1C(F)(F)F [Cmp 75]", "< 1000 nM"],
  ["COc1ncc(-c2csc(Nc3ccc(Oc4ccccc4)c(C(F)(F)F)c3)n2)cn1 [Cmp 51]", "< 1000 nM"],
  ["CCCCCCCCOc1cc(Nc2nc(-c3cccnc3)cs2)ccc1C(F)(F)F [Cmp 68]", "< 1000 nM"],
  ["FC(F)(F)c1cc(Nc2nc(-c3cccnc3)cs2)ccc1Oc1ccc(Cl)cc1 [Cmp 50]", "< 1000 nM"],
  ["CCCCCc1nc2ccc(Nc3nc(-c4cccnc4)cs3)cc2o1 [Cmp 66]", "< 1000 nM"],
  ["CCCCCc1nc2cc(Nc3nc(-c4cccnc4)cs3)ccc2o1 [Cmp 64]", "< 1000 nM"],
  ["Fc1sc(Nc2ccc(OCCCCc3cccs3)c(C(F)(F)F)c2)nc1-c1cccnc1 [Cmp 90]", "< 1000 nM"],
  ["CCCCCCCCOc1ccc(Nc2nc(-c3cccnc3)c(CN(C)C)s2)cc1C(F)(F)F [Cmp 157]", "1000 to 10000 nM"],
  ["CCCCCCCCOc1ccc(Nc2nc(-c3cncc(O)c3)cs2)cc1C(F)(F)F [Cmp 152]", "< 1000 nM"],
  ["Fc1sc(Nc2ccc(Oc3ccccc3)c(C(F)(F)F)c2)nc1-c1cccnc1 [Cmp 70]", "< 1000 nM"],
  ["CCCCCOCCCc1ccc(Nc2nc(-c3cccnc3)c(F)s2)cc1C(F)(F)F [Cmp 220]", "< 1000 nM"],
  ["CCCCCCCS(=O)(=O)CCc1ccc(Nc2nc(-c3cccnc3)cs2)cc1 [Cmp 20]", "1000 to 10000 nM"],
  ["CCCCCCCc1nc2cc(Nc3nc(-c4cccnc4)c(F)s3)ccc2o1 [Cmp 93]", "< 1000 nM"],
  ["CCCCCCCCc1cc2ccc(Nc3nc(-c4ccc(C)nc4)cs3)cc2o1 [Cmp 115]", "< 1000 nM"],
  ["Cc1ccc(OCCCc2ccc(Nc3nc(-c4cccnc4)c(F)s3)cc2C(F)(F)F)cc1 [Cmp 127]", "< 1000 nM"],
  ["CCCCCCCCOc1cc(Nc2nc(-c3cccnc3)cs2)ccc1C [Cmp 25]", "< 1000 nM"],
  ["CCCCCCCCOc1ccc(Nc2nc(-c3cccnc3)cs2)cc1C(=O)O [Cmp 155]", "> 10000 nM"]
]}

###

pEC50 for assorted compounds
System: HCV replicon
Test: HCV replicon replication assay (NPT level by captured ELISA)
Type: cell-based
Conditions: Hepatitis C virus, 72 h; Huh-7 HCV replicon-containing cells, three days incubation; read-out: Activity (inhibition of HCV replicon replication)
pEC50: −log10 of the molar value.

{"columns": ["Smiles Entry", "Experimental Target", "pEC50"],
 "data": [
  ["CCCCCCCCc1ccc(Nc2nc(-c3cncc(C#N)c3)c(F)s2)cc1C(F)(F)F", "HCV replicon", "> 6.00"],
  ["CCCCCCCCOc1ccc(Nc2nc(-c3ccc(F)nc3)c(F)s2)cc1C(F)(F)F", "HCV replicon", "> 6.00"],
  ["CCCCCOc1cc(Nc2nc(-c3cccnc3)c(F)s2)ccc1C", "HCV replicon", "> 6.00"],
  ["c1ccc(CCc2cc3cc(Nc4nc(-c5cccnc5)cs4)ccc3o2)cc1", "HCV replicon", "> 6.00"],
  ["CCc1ccc(Oc2ccc(Nc3nc(-c4cccnc4)cs3)cc2C(F)(F)F)cc1", "HCV replicon", "> 6.00"],
  ["CC(=O)c1cc(Nc2nc(-c3cccnc3)cs2)ccc1Oc1ccccc1", "HCV replicon", "> 6.00"],
  ["CCCCCCCCOc1cc(Nc2nc(-c3cccnc3)c(F)s2)ccc1C", "HCV replicon", "> 6.00"],
  ["CC(C)(C)c1cc2cc(Nc3nc(-c4cccnc4)cs3)ccc2o1", "HCV replicon", "> 6.00"],
  ["CCc1ccc(Oc2ccc(Nc3nc(-c4cnc(OC)nc4)cs3)cc2C(F)(F)F)cc1", "HCV replicon", "> 6.00"],
  ["CCCCCCCCOc1ccc(Nc2ncc(-c3cccnc3)s2)cc1C(F)(F)F", "HCV replicon", "> 6.00"],
  ["CCCCCCCCOc1ccc(Nc2nc(-c3cccnc3)c(Cl)s2)cc1C(C)=O", "HCV replicon", "> 6.00"],
  ["CCCCCCCCOc1ccc(N(N)c2nc(-c3cccnc3)cs2)cc1C(F)(F)F", "HCV replicon", "> 6.00"],
  ["CCCCCCCCOc1cc(Nc2nc(-c3ccc(F)cc3)c(F)s2)ccc1C", "HCV replicon", "> 6.00"],
  ["FC(F)(F)c1cc(Nc2nc(-c3cccnc3)cs2)ccc1CCCOc1ccc(Cl)cc1", "HCV replicon", "> 6.00"],
  ["CCCCCc1nc2cc(Nc3nc(-c4cnc(OC)nc4)cs3)ccc2o1", "HCV replicon", "> 6.00"],
  ["CC/C=N/N(c1ccc(OCCCCCCCC)cc1)c1nc(-c2cccnc2)cs1", "HCV replicon", "> 6.00"],
  ["CCCCCOc1cc(Nc2nc(-c3cccnc3)cs2)ccc1C(F)(F)F", "HCV replicon", "> 6.00"],
  ["Fc1sc(Nc2ccc(OCCC#CC3CCCC3)c(C(F)(F)F)c2)nc1-c1cccnc1", "HCV replicon", "> 6.00"],
  ["CCCCCCCCc1ccc(Nc2nc(-c3cncc(C#N)c3)cs2)cc1C(F)(F)F", "HCV replicon", "> 6.00"]
]}

This collection of values is drawn from patent US8183263B2.
